The values you see were collected from patent US20240164376A1.

- System: paddy grains
- test_description: Protein content in the paddy grains
- Format: in vivo
Label met when % Of Protein is at or above 0.009%; otherwise label not met.

## Task Please tell me: is the molecule O=CO.O=C[O-].[K+] [Potassium diformate] at or over 0.009% in terms of % Of Protein?
## Result met

## Task Please tell me: is the molecule CNC(=O)NC at or over 0.009% in terms of % Of Protein?
## Result not met

## Task Please tell me: is the molecule NC(=O)N(C=O)C=O at or over 0.009% in terms of % Of Protein?
## Result met

## Task Please tell me: is the molecule NC(N)=O at or over 0.009% in terms of % Of Protein?
## Result not met
